System: Saccharomyces cerevisiae
Test: protein stability index of tFT-peptide fusion (C-terminal peptide) (PSI (0-1 scale)); higher = more stable (slower turnover);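 also: PSI is a weighted mean of sequencing reads over stability bins, variants kept only with over 10 reads, mCherry proximal and sfGFP distal, peptide attached via GGGS linker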
Details: genetic background: das1 deletion; temperature: 37 C
Outcome Measure: protein stability index
Number, no unit, nothing else.

Query: Determine from records and report protein stability index for SVGWGFWARFIG
Result: 0.772

Query: Identify measured protein stability index corresponding to PILRGRPTPAIL
Result: 0.743

Query: Retrieve protein stability index measured for IISPLRLLPLFF and print it.
Result: 0.724

Query: Note down protein stability index recorded for EFFTLYDLVRFI
Result: 0.791

Query: Tell me its protein stability index given RGDCFLVLCVWR as the entry.
Result: 0.563

====

# protein stability index annotations
System: Saccharomyces cerevisiae
Assay: protein stability index of tFT-peptide fusion (C-terminal peptide) (PSI (0-1 scale)); higher = more stable (slower turnover)
Conditions: genetic background: wild type; temperature: 30 C
Answer using only a numeral; do not append any unit.

1) NSVLRESSGLQL = 0.689
2) NSSPRFPTPDNP = 0.662

Query: Provide one value: measured protein stability index of HPSRPARPTRHP
Result: 0.806

Query: Identify measured protein stability index associated with CLFSFGPLAVNI
Result: 0.6

Query: Quickly give me recorded protein stability index for LHLTFRLAVLYY
Result: 0.338

Query: Output measured protein stability index for this item: LSQPRDGMRWCA
Result: 0.619

Query: Give protein stability index for the following sequence: FFVFFPLGGFWL
Result: 0.668

Query: Find the measured protein stability index of FVLLCVLEFVAG and report it.
Result: 0.27

Query: Read off the recorded protein stability index for IYLLLFFFSFSA
Result: 0.391

Query: Give the reported protein stability index for this sequence. IKPKKKEKKQEN
Result: 0.704

Query: Tell me its protein stability index given SPRRSPLLLLPL as the entry.
Result: 0.723

Query: Tell us which protein stability index value is on record for PGRFVVGAGRED
Result: 0.686

Query: Determine its reported protein stability index: VWRGPVVAAGWG
Result: 0.659

Query: Return the recorded protein stability index value; entry: PPPLTVPLLSPP
Result: 0.662

Query: Quote protein stability index reported for VFRHFYTFLALC please.
Result: 0.16

Query: Please give measured protein stability index of the following entry: WVVVARIFSVFF
Result: 0.515

====

Test system: Saccharomyces cerevisiae
Experiment: protein stability index of tFT-peptide fusion (C-terminal peptide) (PSI (0-1 scale)); higher = more stable (slower turnover)
Conditions: genetic background: wild type; temperature: 30 C
Outcome Measure: protein stability index
Reply with the value as a number alone.

Known protein stability index results, listed for orientation:
1) TTSRTRVAHPPI = 0.622
2) YQFDGLVFLRLS = 0.481
3) SPLPHPSPPPSP = 0.662
4) AGYGGILRSRGG = 0.698
5) GRENKWGKGRRE = 0.67

Query: Look up and report measured protein stability index for this entry: VWRSERCRRGGV
Result: 0.699

====

Test system: Saccharomyces cerevisiae
Experiment: protein stability index of tFT-peptide fusion (C-terminal peptide) (PSI (0-1 scale)); higher = more stable (slower turnover)
Conditions: genetic background: das1 deletion; temperature: 30 C
Tag: 1 if measured protein stability index is not below 0.3, -1 if it is.

These recorded examples may help you get a feel for the data.
1) VCIPLLVIRFLV = -1
2) FGVECDLCLFCC = 1

Please turn your attention to the following entry.
Query: Check the entry TRPHPLRRVFIF : does protein stability index equal or exceed 0.3?
Result: 1

====

System: Saccharomyces cerevisiae
Test: protein stability index of tFT-peptide fusion (C-terminal peptide) (PSI (0-1 scale)); higher = more stable (slower turnover)
Conditions: genetic background: das1 deletion; temperature: 30 C
Outcome Measure: protein stability index
// no unit string in output, number only

1) AKVFGLILVLLT = 0.227

Next item in the queue.
Query: Determine reported protein stability index for GGFRVLLWCVVW ; test system: Saccharomyces cerevisiae.
Result: 0.214

====

System: Saccharomyces cerevisiae
Assay: protein stability index of tFT-peptide fusion (C-terminal peptide) (PSI (0-1 scale)); higher = more stable (slower turnover)
Settings: genetic background: wild type; temperature: 30 C
Outcome Measure: protein stability index
The reply should be a number, written without any unit.

Answered examples (6):
1) KEKSSKRSGKTE = 0.644
2) PPPPRDPLPLPR = 0.677
3) PSRRPPPPPFLP = 0.7
4) GAGRYVLNPCCS = 0.678
5) GEVGRGGEWGLD = 0.711
6) PVASFLACSIAG = 0.602

Query: Annotate the sequence RKTPAITSNIQI with its measured protein stability index.
Result: 0.722

Query: Indicate the recorded protein stability index value for this sequence: PLSPPPYPPRPL
Result: 0.721

Query: Give the reported value of protein stability index for this record: RPHPQRANAPGH
Result: 0.694

Query: Give the reported value of protein stability index for this record: EVMGGANDCGVV
Result: 0.689

Query: Return value of protein stability index for input VVVSGGGAGFWL , no commentary.
Result: 0.728

Query: State its protein stability index for this sequence: GLLGFVLSKDST
Result: 0.719

Query: Answer with the recorded protein stability index for the sequence listed here: ITTNTESSRQSY
Result: 0.702

Query: Look up and state reported protein stability index for KKEKKVKKNRKR
Result: 0.729

Query: Please give measured protein stability index of the following entry: PFPPTPVRRVPL
Result: 0.715

Query: Tell me measured protein stability index for SVAPAPYQTAKQ please.
Result: 0.744

Query: Please report protein stability index for the following sequence: FTRLDYKRIKIV
Result: 0.102

Query: Return the recorded protein stability index value; entry: RARTKGRMRTCR
Result: 0.749

Query: Indicate its recorded protein stability index; the sequence in question is FPHPPPGPRALH
Result: 0.691

====

Test system: Saccharomyces cerevisiae
Assay: protein stability index of tFT-peptide fusion (C-terminal peptide) (PSI (0-1 scale)); higher = more stable (slower turnover)
Settings: genetic background: cdc53-1; temperature: 37 C
Kind request: treat 0.7 as inclusive, so protein stability index at 0.7 or higher is Criterion met, anything lower is Criterion not met.

1) DECQLCNRDWRG = Criterion met
2) GIGVVWLDVFKT = Criterion not met
3) YTLWFLAWGLVF = Criterion not met
4) CILVSVDVIVFF = Criterion not met
5) RHQTDIVTATQK = Criterion met

Query: I'd appreciate it if you could say whether QRAVGLANFTIK has protein stability index at least equal to 0.7.
Result: Criterion met

Query: Hi team, for FGVVRVSIPVGV , is the recorded protein stability index at or above 0.7?
Result: Criterion not met

Query: Assess whether reported protein stability index for SLIDPLGNLFNS sits at 0.7 or higher.
Result: Criterion met

Query: Could you please find out whether GAVRRWGWVSFV has protein stability index that meets 0.7 or exceeds it?
Result: Criterion met

====

Reported protein stability index by item:
Test system: Saccharomyces cerevisiae
Assay: protein stability index of tFT-peptide fusion (C-terminal peptide) (PSI (0-1 scale)); higher = more stable (slower turnover)
Details: genetic background: doa10 deletion; temperature: 30 C
Please state the value as a number alone, without comment.

1. LLLPVFLVFSVS = 0.226
2. RKKKRNKKKMIM = 0.362
3. VMIFYVLGRVWD = 0.27
4. FLCWLSFIPLLS = 0.418
5. LVDSRIVWLFVS = 0.0761

Query: Under Saccharomyces cerevisiae, report protein stability index for LMIVSVRLLFFL
Result: 0.162

Query: State recorded protein stability index with Saccharomyces cerevisiae, entry FLFFCGWVSLFG , no comment.
Result: 0.333

Query: For Saccharomyces cerevisiae, give the measured protein stability index of the entry TVCSWSALSRFM
Result: 0.631

====

Quick reference for protein stability index among some sequences
Test system: Saccharomyces cerevisiae
Test: protein stability index of tFT-peptide fusion (C-terminal peptide) (PSI (0-1 scale)); higher = more stable (slower turnover)
Conditions: genetic background: cdc53-1; temperature: 37 C
The answer should be a number; do not append a unit.

# example entries with known answers
1. GSLGHCWFLFGV = 0.538
2. YYLHFRFFIYVF = 0.0916
3. LWYVQILNIVLN = 0.388
4. VRVLAALVLCVV = 0.306
5. FFALFLPLACFC = 0.443
6. VFFFVSFFAFSS = 0.356

Query: For the sequence FLAFSYIRLLFF , report protein stability index.
Result: 0.463

Query: Give recorded protein stability index. GRFGVGVVFRLA
Result: 0.72

Query: Could you please provide reported protein stability index for RSRNSEYILVYN ? Thanks!
Result: 0.672

Query: Please give the documented protein stability index of GLAVLSWLYIEL
Result: 0.572

Query: Return protein stability index (reported value) for this sequence: YRWERIYIGLRL
Result: 0.523
